- TARGET_UNDER_TEST: T1, cyno activated protein C (cyno (monkey))
- T1 construct: also called cyno aPC; cyno APC
- METHOD_NOTES: SPR (Biacore), 1:1 binding model

BINDER	kon
1573 mouse (antibody, V domains shown, Parental murine monoclonal antibody; also called mouse aPC monoclonal antibody 1573; HAPC1573) VH: EVKLEESGGGLVQPGGSMKLSCVASGFTFSNYYLNWVRQSPEKGLEWVADIRLKSNNYEKHYAESVKGRFTISRDDSKSSVYLQMNNLRAEDTGIYYCIREGDYFDYWGQGTTLTVSS VL: NIVLTQSPASLAVSLGQRATISCRASESVDSFGATFMHWYQQKPGQPPKLLIYLASNLESGVPARFSGSGSRTDFTLTIDPVEADDAATYYCQQNNEDPYTFGGGTKLEIKR	344000 M⁻¹ s⁻¹
Hu1573-14 (antibody, V domains shown, Humanized IgG, human gamma 1 / kappa constant regions by vectors pCP-hCg1 and pCP-hck; also called H1573VH.1E + H1573Vk.2B) VH: EVQLVESGGGLVQPGGSLRLSCAASGFTFSNYYLNWVRQAPGKGLEWVADIRLKSNNYEKHYAESVKGRFTISRDDSKNSVYLQMNSLKTEDTAVYYCIREGDYFDYWGQGTTVTVSS VL: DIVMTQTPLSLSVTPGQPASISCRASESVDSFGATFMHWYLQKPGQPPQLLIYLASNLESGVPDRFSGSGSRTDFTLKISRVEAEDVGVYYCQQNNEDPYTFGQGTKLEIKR	299000 M⁻¹ s⁻¹
Hu1573-5 (antibody, V domains shown, Humanized IgG, human gamma 1 / kappa constant regions by vectors pCP-hCg1 and pCP-hck; also called H1573VH.1B + H1573Vk.2B) VH: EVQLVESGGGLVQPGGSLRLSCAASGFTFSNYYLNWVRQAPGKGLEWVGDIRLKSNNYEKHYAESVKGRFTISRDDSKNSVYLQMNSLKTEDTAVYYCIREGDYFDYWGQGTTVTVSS VL: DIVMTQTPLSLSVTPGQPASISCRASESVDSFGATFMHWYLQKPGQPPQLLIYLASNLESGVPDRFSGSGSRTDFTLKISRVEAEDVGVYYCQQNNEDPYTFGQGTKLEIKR	202000 M⁻¹ s⁻¹
Hu1573-7 (antibody, V domains shown, Humanized IgG, human gamma 1 / kappa constant regions by vectors pCP-hCg1 and pCP-hck; also called H1573VH.1C + H1573Vk.2A) VH: EVQLVESGGGLVQPGGSLRLSCAASGFTFSNYYLNWVRQAPGKGLEWVADIRLKSNNYEKHYAESVKGRFTISRDDSKNSLYLQMNSLKTEDTAVYYCIREGDYFDYWGQGTTVTVSS VL: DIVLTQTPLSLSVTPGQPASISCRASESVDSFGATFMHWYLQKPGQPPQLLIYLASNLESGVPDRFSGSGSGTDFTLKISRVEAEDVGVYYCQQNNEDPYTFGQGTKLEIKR	255000 M⁻¹ s⁻¹
